# experimentalTarget: Neuropeptide Y receptor type 5 (Homo sapiens)
# Sequence (Q15761 whole entry): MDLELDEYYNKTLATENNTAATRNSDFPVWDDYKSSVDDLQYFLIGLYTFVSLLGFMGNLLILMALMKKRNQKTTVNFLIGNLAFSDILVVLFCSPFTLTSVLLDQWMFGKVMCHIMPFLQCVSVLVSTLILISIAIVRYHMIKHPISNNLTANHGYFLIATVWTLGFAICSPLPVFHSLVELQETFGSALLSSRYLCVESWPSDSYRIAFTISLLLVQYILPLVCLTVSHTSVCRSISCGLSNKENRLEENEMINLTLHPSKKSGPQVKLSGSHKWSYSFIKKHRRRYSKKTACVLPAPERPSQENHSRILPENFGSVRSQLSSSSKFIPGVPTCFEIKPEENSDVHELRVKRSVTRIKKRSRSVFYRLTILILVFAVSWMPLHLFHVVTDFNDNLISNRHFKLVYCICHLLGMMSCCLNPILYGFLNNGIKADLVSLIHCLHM
# procedureDetails: Binding affinity to human NPY Y5 receptor transfected in mouse LMtk cells
# Assay type: cell-based
Provide the recorded log10 IC50 for the entries that follow.
A value of 2 here means IC50 of 100 in nM, since values are log10.

Example entries begin here.
NC(=O)c1ccc2nc(N3CCC4(CC3)OC(=O)c3ccccc34)[nH]c2c1: 2.04
O=C1OC2(CCN(c3nc4c(F)cccc4[nH]3)CC2)c2ccccc21: 2.70
O=C1O[C@]2(CC[C@@H](c3nc4cccnc4[nH]3)CC2)c2ccccc21: 3.15
O=C1OC2(CCN(c3nc4cccnc4[nH]3)CC2)c2ccccc21: 3.20
O=C1OC2(CCN(c3nc4cc5c(cc4[nH]3)OCO5)CC2)c2ccccc21: 0.97
O=C1OC2(CCN(c3nc4cc5c(cc4[nH]3)OC(F)(F)O5)CC2)c2ccccc21: 0.34
O=C1O[C@]2(CC[C@H](c3nc4ncccc4[nH]3)CC2)c2ccccc21: 1.96
O=C1OC2(CCN(c3nc4ccc([N+](=O)[O-])cc4[nH]3)CC2)c2ccccc21: 1.00

# map each compound to its log10 IC50
1. COc1ccc2[nH]c(N3CCC4(CC3)OC(=O)c3ccccc34)nc2c1
2. O=C1OC2(CCN(c3nc4ccccc4[nH]3)CC2)c2ccccc21
3. COc1cccc2[nH]c(N3CCC4(CC3)OC(=O)c3ccccc34)nc12

Key:
1: 1.57; 2: 2.15; 3: 2.40

# map each compound to its log10 IC50
1. O=C1OC2(CCN(Cc3nc4ccccc4[nH]3)CC2)c2ccccc21
2. O=C1OC2(CCN(c3nc4cccc(Cl)c4[nH]3)CC2)c2ccccc21
3. N#Cc1ccc2[nH]c(N3CCC4(CC3)OC(=O)c3ccccc34)nc2c1
4. CS(=O)(=O)c1ccc2[nH]c(N3CCC4(CC3)OC(=O)c3ccccc34)nc2c1

Key:
1: 3.69; 2: 1.71; 3: 1.28; 4: 1.93

# map each compound to its log10 IC50
1. O=C1OC2(CCN(c3nc4cc(-c5ccccc5)ccc4[nH]3)CC2)c2ccccc21
2. Cc1cccc2[nH]c(N3CCC4(CC3)OC(=O)c3ccccc34)nc12
3. O=C1OC2(CCN(c3nc4c(-c5ccccc5)cccc4[nH]3)CC2)c2ccccc21
4. COC(=O)c1ccc2[nH]c(N3CCC4(CC3)OC(=O)c3ccccc34)nc2c1
5. O=C1OC2(CCN(c3nc4cc(F)c(F)cc4[nH]3)CC2)c2ccccc21
6. CN(C)C(=O)c1ccc2nc(N3CCC4(CC3)OC(=O)c3ccccc34)[nH]c2c1
7. O=C1OC2(CCN(c3nc4cc(C(F)(F)F)ccc4[nH]3)CC2)c2ccccc21

Key:
[0.38, 1.87, 1.23, 0.43, 0.68, 1.76, 0.54]

src = ChEMBL document CHEMBL1141687
